# credit: patent US20260317324A1

biological target: BRAF G469A (Homo sapiens, UniProt P15056, G469A); construct: Horizon Discovery (HCT-116 BRAF−/− cells); host or cells: HCT-116 BRAF−/− cells, clone 34, lentiviral transduction; assay: BRAF HiBiT degradation assay, C-terminal HiBiT-tagged BRAF G469A overexpressed in HCT-116 BRAF−/− cells (clone 34), Nano-Glo HiBiT Lytic assay; type: cell-based; conditions: BRAF G469A (Class 2), HCT-116 BRAF−/− cells; DC50 at 50% degradation
Sequence (P15056 whole entry G469A): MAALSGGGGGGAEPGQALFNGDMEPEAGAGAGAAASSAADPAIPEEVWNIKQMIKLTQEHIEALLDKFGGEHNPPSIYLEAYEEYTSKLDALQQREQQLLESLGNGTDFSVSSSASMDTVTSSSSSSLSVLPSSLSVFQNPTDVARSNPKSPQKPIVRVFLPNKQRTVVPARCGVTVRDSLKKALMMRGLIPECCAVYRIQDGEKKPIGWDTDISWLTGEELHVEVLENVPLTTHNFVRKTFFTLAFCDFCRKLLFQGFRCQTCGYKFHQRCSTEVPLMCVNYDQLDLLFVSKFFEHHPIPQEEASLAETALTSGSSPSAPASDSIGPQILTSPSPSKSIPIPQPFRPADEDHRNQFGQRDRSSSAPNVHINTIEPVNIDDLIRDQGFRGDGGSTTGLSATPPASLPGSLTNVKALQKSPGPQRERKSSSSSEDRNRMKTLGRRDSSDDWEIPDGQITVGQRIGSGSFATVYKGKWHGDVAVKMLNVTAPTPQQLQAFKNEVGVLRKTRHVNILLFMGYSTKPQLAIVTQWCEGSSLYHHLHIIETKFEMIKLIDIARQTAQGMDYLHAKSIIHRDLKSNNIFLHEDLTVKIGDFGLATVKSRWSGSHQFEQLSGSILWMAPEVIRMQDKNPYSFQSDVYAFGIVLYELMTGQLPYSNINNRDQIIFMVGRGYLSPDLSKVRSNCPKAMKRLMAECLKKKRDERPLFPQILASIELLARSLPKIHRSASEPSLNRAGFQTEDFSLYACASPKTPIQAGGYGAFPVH
test readout: DC50

Query: Provide value of DC50 for this record tested with BRAF G469A (Homo sapiens, UniProt P15056, G469A): CCCS(=O)(=O)Nc1cccc(-c2nc(C3CCC4(CC3)CCN(C(=O)C3CCN(c5ccc(C6CCC(=O)NC6=O)cn5)CC3)CC4)sc2-c2ccnc(N)n2)c1F (racemic)
Reply: > 0.5 µM

Query: Repeat for the following molecule: CCN(C)S(=O)(=O)Nc1cc(Cl)cc(-c2cn(-c3ccc(N4CCN(CC5CCN(c6ccc(C7CCC(=O)NC7=O)cn6)CC5)CC4)cn3)nc2-c2ccncc2)c1F (racemic)
Reply: < 0.01 µM

Query: Try this molecule too: O=C1CCN(c2ccc(N3CCC(CN4CCN(c5ccc(-n6cc(-c7cc(Cl)cc(NS(=O)(=O)N8CC(F)C8)c7F)c(-c7ccncc7)n6)cc5)CC4)CC3)nc2)C(=O)N1
Reply: 0.01 to 0.05 µM

Query: Please answer likewise for O=C1CC[C@H](c2ccc(N3CCC(CN4CCCN(c5ccc(-n6cc(-c7cc(Cl)cc(NS(=O)(=O)N8CCCC8)c7F)c(-c7ccncc7)n6)c(F)c5)CC4)CC3)cc2)C(=O)N1
Reply: > 0.5 µM

Query: Also need O=C1CCN(c2ccc(N3CCC(CN4CCN(c5ccc(-n6cc(-c7cc(Cl)cc(NS(=O)(=O)N8CCCC8)c7F)c(-c7ccncc7)n6)cc5)CC4)CC3)cc2)C(=O)N1 , thanks.
Reply: > 0.5 µM

Query: Now the same for O=C1CC[C@H](c2ccc(N3CCC(CN4CCN(c5ccc(-n6cc(-c7cc(Cl)cc(NS(=O)(=O)N8CC[C@@H](F)C8)c7F)c(-c7ccncc7)n6)nc5)CC4)CC3)nc2)C(=O)N1
Reply: < 0.01 µM

Query: Next up: CCCS(=O)(=O)Nc1cccc(-c2nc(C3CCN(C(=O)C4CCN(CC5CCN(c6ccc(C7CCC(=O)NC7=O)cn6)CC5)CC4)CC3)sc2-c2ccnc(N)n2)c1F (racemic)
Reply: > 0.5 µM

Query: Would you kindly repeat that for CCCS(=O)(=O)Nc1cc(Cl)cc(-c2cn(-c3ccc(N4CCN(CC5CCN(c6ccc([C@H]7CCC(=O)NC7=O)cc6)CC5)[C@@H](C)C4)cc3)nc2-c2ccncc2)c1F ?
Reply: > 0.5 µM
